biological target: ɑ1AAR (Homo sapiens); experiment: PM–ligand BRET equilibrium binding, α1AAR with GLuc–PM; parameters: expressed in transfected cells; host or cells: HEK 293T
recorded.metric: pKi
# reply with the number alone; pKi is -log10 of concentration in mol/L

Inquiry: Given the compound COc1ccccc1OCCNCC(O)COc1cccc2[nH]c3ccccc3c12 (stereo not shown) [carvedilol, reference compound] , write its reported pKi.
Reply text: 7.36

###

target: ɑ1AAR (Homo sapiens, UniProt P35348); assay: α1AAR ligand screening, plasma membrane–ligand BRET (α1AAR with GLuc–PM); conditions: 20 min, read-out: plasma membrane-ligand BRET decrease (%) Replicate1
Sequence (P35348 whole entry): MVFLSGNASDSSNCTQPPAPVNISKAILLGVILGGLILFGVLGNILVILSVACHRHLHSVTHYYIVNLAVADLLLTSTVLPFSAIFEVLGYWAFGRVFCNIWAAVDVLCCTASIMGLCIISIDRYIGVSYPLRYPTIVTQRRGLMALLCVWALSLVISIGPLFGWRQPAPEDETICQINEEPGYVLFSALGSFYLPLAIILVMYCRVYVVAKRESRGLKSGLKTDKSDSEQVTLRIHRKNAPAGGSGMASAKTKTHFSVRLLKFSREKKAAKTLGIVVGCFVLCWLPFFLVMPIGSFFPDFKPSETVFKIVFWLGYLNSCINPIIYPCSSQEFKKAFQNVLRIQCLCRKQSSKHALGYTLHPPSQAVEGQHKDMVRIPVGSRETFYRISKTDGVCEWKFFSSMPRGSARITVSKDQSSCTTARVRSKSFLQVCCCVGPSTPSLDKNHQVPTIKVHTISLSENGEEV
Reported inhibition at 10 µM values are given for each entry in this list.
Field format: number, assumed %, no unit text.

Past entries and their recorded results:
molecule	unit.annotation	inhibition at 10 µM
Cc1cc(S(=O)(=O)NCc2ccccc2)ccc1OCC(=O)N1CCN(C)CC1	%	1.05
CN(C)CCCNCc1ccc2c(c1)OCO2	%	-1.24
O=C(CN1CCN(CC(=O)Nc2cccc([N+](=O)[O-])c2)CC1)Nc1cccc([N+](=O)[O-])c1	%	-1.4
Cc1cc(C)c(CNC(=O)c2ccc(NC(=O)C3CC3)cc2)c(=O)[nH]1	%	-7.67

Inquiry: For ɑ1AAR (Homo sapiens, UniProt P35348), give inhibition at 10 µM of the listed molecule: CS(=O)(=O)Nc1c(O)ccc2c1CCCC2C1=NCCN1 (stereo not shown) [Compound A61603, A61603, reference compound]
Reply text: -74

Inquiry: # return inhibition at 10 µM for CSc1ccc(CNC2CN3CCC2CC3)cc1 (stereo not shown) , test system: ɑ1AAR (Homo sapiens, UniProt P35348)
Reply text: -0.99

###

Parameter: inhibition at 10 µM. Scope: all listed entries.
biological target: ɑ1AAR (Homo sapiens); assay: α1AAR ligand screening, plasma membrane–ligand BRET (α1AAR with GLuc–PM); conditions: 20 min, read-out: plasma membrane-ligand BRET decrease (%) Replicate1
Field: numeric (%). Do not append units.

compound	recorded.metric	unit.annotation	observed.value
CC(C)(C)Nc1nnc(Sc2ncnc3sccc23)s1	inhibition at 10 µM	%	-11.6
CCC(=O)c1ccc(OCCN2CCOCC2)cc1	inhibition at 10 µM	%	-1.24
CC(NC(=O)C1CC1C)c1ccc(-n2cncn2)cc1 (stereo not shown)	inhibition at 10 µM	%	4.15

Attention now shifts to the item below.
Inquiry: Specify reported inhibition at 10 µM for the compound shown: C=CCOc1ccc2[nH]c(C)c(C(=O)OCC)c2c1
Reply text: 4.81
